For each entry below, report its CC50 value.
test system: HeLa; test: compound was tested for 50% toxic concentration by visual grading scale of cells after 3 days of drug treatment in HT4-6C cells.; assay type: functional; settings: Homo sapiens, 72 h, read-out: TC50 (the source's name)
One number for each entry, in µM.

Smiles Entry: CCCCCCCCCCCCCCCCCCCCOC(=O)P(=O)(O)OC[C@H]1O[C@@H](n2cc(C)c(=O)[nH]c2=O)C[C@@H]1N=[N+]=[N-].N
Metric Name: CC50
Unit Abbrev: µM
Recorded Value: 32

Smiles Entry: CCCCCCCCCCCCCCCCCCCCCCOC(=O)P(=O)(O)OC[C@H]1O[C@@H](n2cc(C)c(=O)[nH]c2=O)C[C@@H]1N=[N+]=[N-].N
Metric Name: CC50
Unit Abbrev: µM
Recorded Value: 320

Smiles Entry: O=C(O)P(=O)(O)O
Metric Name: CC50
Unit Abbrev: µM
Recorded Value: 1000

Q: Value lookup for CC50; key = CCCCCCCCCCCCCCCCCCOC(=O)P(=O)(O)OC[C@H]1O[C@@H](n2cc(C)c(=O)[nH]c2=O)C[C@@H]1N=[N+]=[N-].N
Ans: 10
